# targetEntity: Torsin-1A-interacting protein 1 (Homo sapiens)
# experimentDescription: LAP1 binders from COS7 cell lysate, primary screen, small-molecule microarray, 635/667 nm fluorescence (AID 1116)
# details: COS7-hLAP1 lysate binding, 635 nm fluorescence, higher = more signal
Hi, to clarify the labels: label 1 covers composite z-score from 0.7 upward, label 0 covers anything below 0.7.

Example entries begin here.
>>> answerlabel("CO[C@H]1COC(=O)[C@H](C)COC(=O)CC=C[C@@H](C)[C@H](OC)COC(=O)CC=C[C@@H]1C")
"label 0"
>>> answerlabel("COc1ccc(O[C@@H]2[C@H](O)CO[C@H]2C=CC#Cc2ccccc2)cc1")
"label 0"
>>> answerlabel("CCOC(=O)C[C@H]1[C@H](OC(=O)c2cc3ccccc3oc2=O)[C@@H](NC(=O)c2ccc3ccccc3n2)c2cc(OCCCO)ccc2N1C(=O)c1ccccc1")
"label 1"
>>> answerlabel("CO[C@@H]1COC(=O)CC=C[C@@H](C)[C@@H]2C=C[C@@H](O)[C@@H](COC(=O)CC=C[C@H]1C)O2")
"label 0"
>>> answerlabel("CN(C)c1ccc(C(O)C2C=CC3C(=O)N(c4ccccc4)C(=O)C3N2Nc2ccccc2F)cc1 (stereo not given)")
"label 1"
>>> answerlabel("CCCCc1nc2c(c3c1C[C@H](C)OC3)CN(CCC(C)C)CC2")
"label 0"
>>> answerlabel("O=C1O[C@@H](c2ccccc2)[C@@H](c2ccccc2)N2[C@@H](c3ccc(O)cc3)[C@]3(C(=O)Nc4ccccc43)[C@@H](C(=O)O)[C@H]12")
"label 1"
>>> answerlabel("C[N+](C)(C)CCCCCCNC(=O)[C@@H]1C[C@@H]2C(=O)N3CCC[C@H]3C(=O)N2[C@@H]1c1cccc(OCCO)c1")
"label 0"
>>> answerlabel("O=C1[C@H]2[C@H]3[C@H](O)[C@H](O)CC(=NOC[C@@H](O)COCc4ccco4)[C@@H]3CC[C@H]2C(=O)N1c1ccc(F)cc1F")
"label 0"
>>> answerlabel("CC(CCN1CCCCc2nc(C)c(C)cc21)=NOC(C)CN1CCCCc2nc(C)c(C)cc21 (stereo not given)")
"label 0"

For the next question, use this compound.
Query: Given CCOC(=O)NN=C1C[C@@H](O)[C@@H](O)[C@@H]2[C@@H]3C(=O)N(C4CCCCC4)C(=O)[C@@H]3CC[C@@H]12 , state whether its composite z-score is at least 0.7.
Response: label 0

# credit: PubChem BioAssay
